assay.system: WDR5 (Homo sapiens (Human))
measurement.protocol: TR-FRET binding assay, displacement of 10mer-Thr-FAM probe from His-tagged WDR5
condition.info: Inhibition of WDR5 by TR-FRET assay
Item-by-item account of Ki
API: value field is a number in nM; no unit string.

chemical.structure: COc1cc(CNC(=O)c2cc(Cn3ccnc3)cc(-c3ccc(=O)[nH]c3)c2)cc(OC)c1
assay.system: WDR5 (Homo sapiens (Human))
Ki, nM: 22

chemical.structure: CC1(NC(=O)c2cc(Cn3ccnc3)cc(-c3ccc(F)cc3Cl)c2)CCCC1
assay.system: WDR5 (Homo sapiens (Human))
Ki, nM: 50

Field: Ki (WDR5 (Homo sapiens (Human))). Entry: COc1cc(CNC(=O)c2cc(CNC3=NCCN3)cc(-c3ccc(F)nc3C)n2)ccn1
5.74

----------
assay.system: UniProt P61964
measurement.protocol: Fluorescence polarization anisotropy (FPA) competition assay, displacement of FITC-MLL or 10mer-Thr-FAM peptide
Type: binding
condition.info: Table B2, WDR5 WIN-site binding affinity; values not less than 1 nM (FPA)
pKi: −log10 of the molar value.
Could you label it TRUE if measured pKi is 8 or higher, and FALSE otherwise?

Previously resolved entries follow.
compound: O=C(NCc1ccc(Cl)cn1)c1ccc(F)c(CNC2=NCCN2)c1
assay.system: UniProt P61964
label.class: FALSE

compound: COc1ccc(CNC(=O)c2cc(F)c(F)c(CNC3=NCCN3)c2)cc1Cl
assay.system: UniProt P61964
label.class: TRUE

Kindly determine if pKi recorded for COc1ccc(C(=O)NCc2ccc(Cl)cn2)cc1CNC1=NCCN1 is above or exactly 8.
FALSE

Param item: COc1cc(OC)cc(C(C)NC(=O)c2ccc(OC)c(CNC3=NCCN3)c2)c1 (stereo not drawn)
TRUE

For COc1cc(OC)cc(C(C)NC(=O)c2ccc(OC(C)C)c(CNC3=NCCN3)c2)c1 (stereo not drawn) then?
FALSE

Also check COc1cc(OC)cc(C(C)NC(=O)c2cc(F)c(F)c(CNC3=NCCN3)c2)c1 (stereo not drawn)
TRUE

Lookup O=C(NCc1cc(Cl)cc(Cl)c1)c1cccc(CNC2=NCCN2)c1
FALSE

----------
assay.system: WDR5 (Homo sapiens (Human), UniProt P61964)
measurement.protocol: Fluorescence polarization anisotropy (FPA) competition assay, displacement of FITC-MLL or 10mer-Thr-FAM peptide
Format: binding
condition.info: Table B2, WDR5 WIN-site binding affinity; values not less than 1 nM (FPA)
quantity: Ki (nM)
Expressed in nM, but write only the number.

Answered cases to consult:
molecule: COc1ccnc(CNC(=O)c2cc(F)c(F)c(CNC3=NCCN3)c2)c1 [Example B34]
reported: 12

molecule: Cc1cc(C)nc(CNC(=O)c2ccc(F)c(CNC3=NCCN3)c2)n1 [Example B45]
reported: 11.3

molecule: COc1ccc(C(=O)NCc2ccc(F)c(CNC3=NCCN3)c2)cc1Cl [Example B26]
reported: 3.24

molecule: O=C(NCc1ccc(Cl)c(Cl)c1)c1cc(CNC2=NCCN2)cc(-c2ccc(F)cc2Cl)c1 [Example B54]
reported: 1.12

molecule: COc1ccc(C(=O)NCc2ccc(Cl)c(C)c2)cc1CNC1=NCCN1 [Example B42]
reported: 1.51

molecule: Cc1ccnc(C(NC(=O)c2ccc(F)c(CNC3=NCCN3)c2)C2CC2)c1 (stereo not drawn) [Example B20]
reported: 4.6

Consider the molecule shown here: CC(C)Oc1ccc(C(=O)NCc2ccc(Cl)c(Cl)c2)cc1CNC1=NCCN1 [Example B53] What is its recorded Ki?
40.9

Same read-out for Cc1cnc(CNC(=O)c2ccc(F)c(CNC3=NCCN3)c2)cn1 [Example B46] ?
3.96

Thanks! And COc1cc(CNC(=O)c2ccc(OC)c(CNC3=NCCN3)c2)cc(OC)c1 [Example B27] ?
7.52
